molecular target: PDGF-receptor beta enzyme comprising the tyrosine kinase domain (Homo sapiens, UniProt P09619); construct: from amino acid 545 to 1106 of GenBank Access NO: AAA36427; test: Inhibition of PDGF-receptor kinase activity (cell-free, PLC1 peptide, 33P Flashplate); assay type: biochemical; details: PDGF-R kinase activity; compound at 10 uM; 10 µM
Sequence (P09619 545-1106): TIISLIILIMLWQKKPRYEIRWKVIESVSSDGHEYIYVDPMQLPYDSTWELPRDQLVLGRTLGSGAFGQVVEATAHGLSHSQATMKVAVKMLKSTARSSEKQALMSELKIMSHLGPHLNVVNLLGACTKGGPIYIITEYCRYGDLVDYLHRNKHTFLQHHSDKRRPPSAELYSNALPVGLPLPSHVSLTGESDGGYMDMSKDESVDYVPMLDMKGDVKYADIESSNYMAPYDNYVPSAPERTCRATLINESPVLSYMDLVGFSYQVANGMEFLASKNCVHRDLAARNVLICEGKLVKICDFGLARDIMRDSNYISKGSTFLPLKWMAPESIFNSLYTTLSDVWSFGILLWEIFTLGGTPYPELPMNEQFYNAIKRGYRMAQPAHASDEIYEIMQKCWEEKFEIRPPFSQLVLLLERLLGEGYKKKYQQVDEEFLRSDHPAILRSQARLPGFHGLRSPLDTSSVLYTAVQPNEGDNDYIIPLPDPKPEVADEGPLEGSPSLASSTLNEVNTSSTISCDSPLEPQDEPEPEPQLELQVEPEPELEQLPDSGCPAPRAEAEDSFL
quantity_kind: Percent Inhibition @ 10 uM (%)

Worked set:
| molecule | Percent Inhibition @ 10 uM [%] |
| --- | --- |
| CCC1c2cc(OC)c(OC)cc2-c2n[nH]c(Nc3cccc(Br)c3)c21 (single isomer, unassigned) [Compound 570] | 77.5 |
| CCOc1cccc(Nc2[nH]nc3c2C(C)c2cc(OC)c(OC)cc2-3)c1 (single isomer, unassigned) [Compound 554] | 102 |
| CCOc1cccc(Nc2[nH]nc3c2C(C)c2cc(OC)c(OC)cc2-3)c1 (single isomer, unassigned) [Compound 569] | 64 |
| CCOc1cccc(Nc2[nH]nc3c2C(CC)c2cc(OC)c(OC)cc2-3)c1 (single isomer, unassigned) [Compound 556] | 98 |
| CCC1c2cc(OC)c(OC)cc2-c2[nH]nc(Nc3cccc(Br)c3)c21 (single isomer, unassigned) [Compound 483] | 78.5 |

A. CCC1c2cc(OC)c(OC)cc2-c2[nH]nc(Nc3cccc(Br)c3)c21 (single isomer, unassigned) [Compound 482]
B. CCOc1cccc(Nc2[nH]nc3c2C(CC)c2cc(OC)c(OC)cc2-3)c1 (single isomer, unassigned) [Compound 571]
## Task Lab notebook, comparison: A versus B , higher Percent Inhibition @ 10 uM goes to which? Bench note: the answer is the label of the chosen record.
## Result A
(A: 100%, B: 66%)
